# protocol details: Biodistribution studies of 11C tracers
# Assay type: in vivo, Wistar rats
# conditions: 2 min p.i.
Threshold check on % ID Kidneys: strictly below 7 % ID is criterion met; on or above 7 % ID is criterion not met.

Does the reported % ID Kidneys of [11CH3]Oc1c(F)ccc(F)c1C1CCN(c2ccn3c(CC4CC4)nnc3c2C(F)(F)F)CC1 [[^11C]B-3] stay below 7 % ID?
criterion not met

Hello, is % ID Kidneys of the following compound strictly smaller than 7 % ID? [11CH3]Oc1c(F)ccc(F)c1C1CCN(c2ccn3c(CC4CC4)nnc3c2Cl)CC1 [[^11C]B-2]
criterion met

Is the reported % ID Kidneys for [11CH3]Oc1cc(F)cc(F)c1C1CCN(c2ccn3c(CC4CC4)nnc3c2Cl)CC1 [[^11C]B-7] strictly below 7 % ID?
criterion met

State whether 7 % ID exceeds % ID Kidneys recorded for [11CH3]Oc1ccc(F)c(F)c1C1CCN(c2ccn3c(CC4CC4)nnc3c2Cl)CC1 [[^11C]B-10] .
criterion not met

In the record for [11CH3]Oc1ccc(F)cc1C1CCN(c2ccn3c(CC4CC4)nnc3c2Cl)CC1 [[^11C]B-4] , is % ID Kidneys less than 7 % ID?
criterion met

Where do these numbers come from? They come from patent US20130230459A1.
